Experiment: Clearance in human liver microsomes
So basically: is microsomal CLint under 20 µL/min/mg? Then 1 (yes). Not under? Then 0 (no).

[[record]]
smiles_string = "CCn1c(=O)n(Cc2cc(C)no2)c(=O)c2cc(S(=O)(=O)NC3(C)CC3)ccc21"
answer_label = "0 (no)"

[[record]]
smiles_string = "Cc1cc(Cn2c(=O)n(Cc3nnc(C)s3)c(=O)c3cc(S(=O)(=O)NC4(C)CC4)ccc32)n(C)n1"
answer_label = "1 (yes)"

[[record]]
smiles_string = "Cc1cc(Cn2c(=O)c3cc(S(=O)(=O)NC4(C)CC4)ccc3n(CC3COC3)c2=O)on1"
answer_label = "1 (yes)"


Request: microsomal CLint under 20 µL/min/mg? Item: C#CCn1c(=O)n(Cc2cnc(C)s2)c(=O)c2cc(S(=O)(=O)NC3(C)CC3)ccc21
Result: 0 (no)

Request: Check if microsomal CLint falls below 20 µL/min/mg for C#CCn1c(=O)n(Cc2cnn(C)c2)c(=O)c2cc(S(=O)(=O)NC3(C)CC3)ccc21 .
Result: 0 (no)

Request: Strictly below 20 µL/min/mg in microsomal CLint? CC1(NS(=O)(=O)c2ccc3c(c2)c(=O)n(CC#N)c(=O)n3CC2CC2)CC1
Result: 1 (yes)

Request: Threshold test, microsomal CLint < 20 µL/min/mg: Cc1ncc(Cn2c(=O)c3cc(S(=O)(=O)NC4(C)CC4)ccc3n(Cc3sc(C)nc3C)c2=O)s1
Result: 0 (no)

Request: For this molecule, is microsomal CLint lower than 20 µL/min/mg? CCn1c(=O)n(Cc2nnc(C)s2)c(=O)c2cc(S(=O)(=O)NC3(C)CC3)ccc21
Result: 1 (yes)

Request: Does the reported microsomal CLint of the following molecule sit strictly below 20 µL/min/mg? Cc1cc(Cn2c(=O)n(Cc3cnc(C)s3)c(=O)c3cc(S(=O)(=O)NC4(C)CC4)ccc32)n(C)n1
Result: 0 (no)

* * *

Biological target: Poly(ADP-ribose) glycohydrolase (Homo sapiens, UniProt Q86W56)
Sequence (Q86W56 whole entry): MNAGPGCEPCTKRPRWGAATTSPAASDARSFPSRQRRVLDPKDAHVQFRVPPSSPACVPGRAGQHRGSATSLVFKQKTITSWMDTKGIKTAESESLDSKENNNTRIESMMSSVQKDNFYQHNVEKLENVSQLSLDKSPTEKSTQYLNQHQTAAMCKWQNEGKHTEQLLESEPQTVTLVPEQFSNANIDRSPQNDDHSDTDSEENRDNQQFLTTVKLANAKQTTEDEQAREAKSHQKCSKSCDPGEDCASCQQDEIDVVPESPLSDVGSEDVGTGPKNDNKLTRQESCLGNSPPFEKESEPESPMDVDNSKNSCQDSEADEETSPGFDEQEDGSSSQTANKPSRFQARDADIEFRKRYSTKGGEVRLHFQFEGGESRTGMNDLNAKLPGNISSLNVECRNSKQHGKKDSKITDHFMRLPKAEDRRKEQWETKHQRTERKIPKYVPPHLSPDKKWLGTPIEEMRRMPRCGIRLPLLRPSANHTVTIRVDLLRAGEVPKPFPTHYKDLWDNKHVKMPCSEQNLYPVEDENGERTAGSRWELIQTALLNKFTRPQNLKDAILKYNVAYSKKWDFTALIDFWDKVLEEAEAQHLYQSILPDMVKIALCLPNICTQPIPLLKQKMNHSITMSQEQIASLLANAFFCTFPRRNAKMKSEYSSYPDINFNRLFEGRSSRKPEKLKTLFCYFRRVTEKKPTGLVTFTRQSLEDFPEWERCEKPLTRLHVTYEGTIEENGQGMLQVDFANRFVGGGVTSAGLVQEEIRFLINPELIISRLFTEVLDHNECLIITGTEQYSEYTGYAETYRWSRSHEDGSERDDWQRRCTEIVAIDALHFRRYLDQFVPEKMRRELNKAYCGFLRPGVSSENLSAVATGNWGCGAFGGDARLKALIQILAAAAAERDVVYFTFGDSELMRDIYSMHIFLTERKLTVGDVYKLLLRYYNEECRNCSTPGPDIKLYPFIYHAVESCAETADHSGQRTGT
Experiment: Inhibition of human full length PARG using Bt-NAD ribosylated PARP1 substrate after 10 mins by TR-FRET assay
Reported EC50 values are given for each entry in this list.

Some solved entries appear below for comparison.
[[record]]
smiles_string = "Cn1cc(Cn2c(=O)c3cc(S(=O)(=O)NC4(C)CC4)ccc3n(CC3CC3)c2=O)cn1"
target_or_test_system = "Poly(ADP-ribose) glycohydrolase (Homo sapiens, UniProt Q86W56)"
result = "0.029 µM"

[[record]]
smiles_string = "CCNS(=O)(=O)c1ccc2c(c1)c(=O)n(C)c(=O)n2C"
target_or_test_system = "Poly(ADP-ribose) glycohydrolase (Homo sapiens, UniProt Q86W56)"
result = "> 150 µM"

[[record]]
smiles_string = "Cc1nonc1Cn1c(=O)c2cc(S(=O)(=O)NC3(C)CC3)ccc2n(C)c1=O"
target_or_test_system = "Poly(ADP-ribose) glycohydrolase (Homo sapiens, UniProt Q86W56)"
result = "2.1 µM"

[[record]]
smiles_string = "O=C1c2ccccc2C(=O)c2cc(S(=O)(=O)NC3CC3)ccc21"
target_or_test_system = "Poly(ADP-ribose) glycohydrolase (Homo sapiens, UniProt Q86W56)"
result = "13 µM"

[[record]]
smiles_string = "Cc1cc(Cn2c(=O)n(Cc3cnn(C)c3)c(=O)c3cc(S(=O)(=O)NC4(C)CC4)ccc32)n(C)n1"
target_or_test_system = "Poly(ADP-ribose) glycohydrolase (Homo sapiens, UniProt Q86W56)"
result = "0.023 µM"

[[record]]
smiles_string = "Cn1nccc1Cn1c(=O)c2cc(S(=O)(=O)NC3(C)CC3)ccc2n(C)c1=O"
target_or_test_system = "Poly(ADP-ribose) glycohydrolase (Homo sapiens, UniProt Q86W56)"
result = "4.1 µM"


Request: Look up EC50 for this molecule: Cn1cc(Cn2c(=O)c3cc(S(=O)(=O)NC4(C)CC4)ccc3n(CC3COC3)c2=O)cn1
Result: 0.069 µM

Request: Which measured EC50 value corresponds to Cn1c(=O)c2cc(S(=O)(=O)NC3(C)CC3)ccc2n(C)c1=O ?
Result: 3.9 µM

Request: Using the record for Cn1c(=O)c2cc(S(=O)(=O)NC3CC3)ccc2n(C)c1=O , report its EC50.
Result: 11 µM

Request: Quick one: EC50 for Cn1c(=O)n(Cc2ccccc2)c(=O)c2cc(S(=O)(=O)NC3(C)CC3)ccc21 ?
Result: 26 µM

* * *

Molecular target: Poly(ADP-ribose) glycohydrolase (Homo sapiens, UniProt Q86W56)
Assay: Inhibition of human full length PARG using Bt-NAD ribosylated PARP1 substrate after 10 mins by TR-FRET assay
// map EC50 to label using interval 1: < 500 nM; interval 2: ≥ 500 nM and < 5000 nM; interval 3: ≥ 5000 nM

[[record]]
smiles_string = "Cc1cc(Cn2c(=O)c3cc(S(=O)(=O)NC4(C)CC4)ccc3n(C)c2=O)no1"
answer_label = "interval 3"


Request: Bin? Cn1c(=O)n(Cc2ccncc2)c(=O)c2cc(S(=O)(=O)NC3(C)CC3)ccc21
Result: interval 3

Request: For this compound, which bin applies? NC(=O)CCNS(=O)(=O)c1ccc2c(c1)C(=O)c1ccccc1C2=O
Result: interval 3

* * *

Experiment: Clearance in CD1 mouse at 1 mg/kg, iv administered as single dose by LC-MS/MS analysis
Format: ADME, organism-based
Settings: in vivo
READOUT_TYPE: clearance (mL/min/kg)
Note: unit mL/min/kg is implicit; provide only the numeric part.

[[record]]
smiles_string = "Cn1cc(Cn2c(=O)c3cc(S(=O)(=O)NC4(C)CC4)ccc3n(CC3COC3)c2=O)cn1"
readout_type = "clearance"
result_number = 66.7


Kindly review the next molecule as well.
Request: GET /values?readout=clearance&item= Cc1cc(Cn2c(=O)c3cc(S(=O)(=O)NC4(C)CC4)ccc3n(CC3COC3)c2=O)on1
Result: 167

* * *

Target: UniProt Q86W56
Test: Inhibition of PARG in human HeLa cells assessed as induction of MMS-induced PAR chains preincubated for 1 hr followed by MMS addition and measured after 1 hr by Alexofluor 488-conjugated secondary antibody and Hoechst 33342 staining based assay
Type: cell-based
Property: log10(EC50); scope: individual compounds
Heads up, the numbers here are log10 of EC50 in nM units.

Below, each entry is followed by its recorded log10(EC50) result.
[[record]]
smiles_string = "Cn1cc(Cn2c(=O)c3cc(S(=O)(=O)NC4(C)CC4)ccc3n(CC3COC3)c2=O)cn1"
result_number = 2.40

[[record]]
smiles_string = "N#CC1(NS(=O)(=O)c2ccc3c(c2)C(=O)c2ccccc2C3=O)CC1"
result_number = 4.28

[[record]]
smiles_string = "Cc1cc(Cn2c(=O)n(Cc3cnn(C)c3)c(=O)c3cc(S(=O)(=O)NC4(C)CC4)ccc32)n(C)n1"
result_number = 1.94

[[record]]
smiles_string = "C#CCn1c(=O)n(Cc2cnc(C)s2)c(=O)c2cc(S(=O)(=O)NC3(C)CC3)ccc21"
result_number = 1.91


Now for another entry.
Request: If you can, please state the reported log10(EC50) value of CCn1c(=O)n(C)c(=O)c2cc(S(=O)(=O)NC3(C)CC3)ccc21 .
Result: 3.56

* * *

Experiment: Solubility of the compound by turbidimetric method
Format: physicochemical
READOUT_TYPE: solubility kinetic (µM)
The reply should contain only the number, in µM.

Request: Would you mind telling me what solubility kinetic value was observed for CC(C)(C)NS(=O)(=O)c1ccc2c(c1)C(=O)c1ccccc1C2=O ?
Result: 20

* * *

Experiment: Clearance in mouse liver microsomes
Recorded microsomal CLint for the following compounds

[[record]]
smiles_string = "Cc1cc(Cn2c(=O)n(Cc3nnc(C)s3)c(=O)c3cc(S(=O)(=O)NC4(C)CC4)ccc32)n(C)n1"
result = "35 µL/min/mg"

[[record]]
smiles_string = "CC1(NS(=O)(=O)c2ccc3c(c2)c(=O)n(CC#N)c(=O)n3CC2CC2)CC1"
result = "36 µL/min/mg"

[[record]]
smiles_string = "C#CCn1c(=O)n(CC#N)c(=O)c2cc(S(=O)(=O)NC3(C)CC3)ccc21"
result = "63 µL/min/mg"


Request: Find the recorded microsomal CLint belonging to CCn1c(=O)n(Cc2nnc(C)s2)c(=O)c2cc(S(=O)(=O)NC3(C)CC3)ccc21 and report it.
Result: 30 µL/min/mg

Request: Bench note: what microsomal CLint did Cn1cc(Cn2c(=O)c3cc(S(=O)(=O)NC4(C)CC4)ccc3n(CC3COC3)c2=O)cn1 show?
Result: 16 µL/min/mg

Request: Look at this compound and give its reported microsomal CLint. Cc1cc(Cn2c(=O)c3cc(S(=O)(=O)NC4(C)CC4)ccc3n(CC3COC3)c2=O)on1
Result: 22 µL/min/mg

* * *

Target: Cytochrome P450 2C9 (Homo sapiens)
Sequence (P11712 whole entry): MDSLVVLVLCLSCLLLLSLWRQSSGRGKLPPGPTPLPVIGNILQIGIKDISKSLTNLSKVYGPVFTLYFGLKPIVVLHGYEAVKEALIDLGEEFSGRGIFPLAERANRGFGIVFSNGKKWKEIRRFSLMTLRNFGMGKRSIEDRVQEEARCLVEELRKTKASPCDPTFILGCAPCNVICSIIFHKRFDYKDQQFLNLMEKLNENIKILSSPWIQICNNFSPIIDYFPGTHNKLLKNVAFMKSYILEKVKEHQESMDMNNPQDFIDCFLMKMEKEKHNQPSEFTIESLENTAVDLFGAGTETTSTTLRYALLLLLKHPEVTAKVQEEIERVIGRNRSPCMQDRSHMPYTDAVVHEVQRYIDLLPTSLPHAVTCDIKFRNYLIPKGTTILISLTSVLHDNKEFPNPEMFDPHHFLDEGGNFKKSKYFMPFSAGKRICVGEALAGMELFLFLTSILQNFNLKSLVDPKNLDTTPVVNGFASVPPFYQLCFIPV
READOUT_TYPE: IC50

Request: Item Cc1cc(Cn2c(=O)c3cc(S(=O)(=O)NC4(C)CC4)ccc3n(CC3COC3)c2=O)on1 with Cytochrome P450 2C9 (Homo sapiens) - IC50?
Result: > 25 µM
